Biological target: human CXCR3 (N-delta 4) (Homo sapiens, UniProt P49682)
Construct: CD8 leader (N); Flag; expressed in transfected cells; membranes prepared
Sequence (P49682 5-368 limits assumed): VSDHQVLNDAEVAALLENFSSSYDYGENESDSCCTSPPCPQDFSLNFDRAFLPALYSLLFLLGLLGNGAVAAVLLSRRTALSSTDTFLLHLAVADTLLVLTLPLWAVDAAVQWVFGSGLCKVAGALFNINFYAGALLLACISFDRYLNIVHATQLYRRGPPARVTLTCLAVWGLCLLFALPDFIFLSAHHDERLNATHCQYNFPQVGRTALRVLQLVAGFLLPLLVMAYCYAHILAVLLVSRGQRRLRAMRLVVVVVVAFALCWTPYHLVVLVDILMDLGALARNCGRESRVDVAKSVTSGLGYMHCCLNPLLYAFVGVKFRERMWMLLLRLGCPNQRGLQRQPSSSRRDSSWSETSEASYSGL
Assay: Human CXCR3 (N-delta 4) Scintillation Proximity Assay (SPA), [125I] IP-10 binding to Ba/F3-hCXCR3 membranes
Settings: IC50 rating, Table 1; read-out: IC50
Source text: The inventive compounds can readily be evaluated to determine activity at the CXCR3 receptors by known methods, such as, for example, development of a human CXCR3 (N-delta 4) Binding Assay. Cloning and Expression of Human CXCR3 (N-delta 4): The DNA encoding human CXCR3 was cloned by PCR using human genomic DNA (Promega, Madison, Wis.) as a template. […]
Metric Name: IC50

> print(dat)
                                    compound  value.measured
 1  CC[C@H]1CN(c2nc(N)c(C(N)=O)nc2Cl)CCN1C1CCN(C(=O)c2ccc(Cl)cc2CC(N)=O)CC1 [compound 357]        > 100 nM
 2  CC[C@H]1CN(c2ncc(C(N)=O)nc2C)[C@H](C)CN1C1CCN(Cc2ccc(C#N)cc2)CC1 [compound 434]         < 25 nM
 3  CC[C@H]1CN(c2nc(N)c(C(=O)NCCO)nc2Cl)CCN1C1CCN(Cc2ccc(Cl)cc2OCCNC(=O)NC(C)(C)C)CC1 [compound 137]         < 25 nM
 4  CC[C@H]1CN(c2nc(N)c(C(=O)N[C@H]3CCN(C)C3=O)nc2Cl)CCN1C1CCN(Cc2ccc(C#N)cc2)CC1 [compound 211]        > 100 nM
 5  CC[C@H]1CN(c2ncc(C(=O)NC3CC3)nc2C(F)(F)F)CCN1C1CCN(C(=O)c2ccc(F)c(F)c2)CC1 [compound 490]         < 25 nM
 6  CC[C@H]1CN(c2nc(N)c(C(N)=O)nc2Cl)CCN1C1CCN([C@H](CO)c2ccc(Cl)cc2)CC1 [compound 49]        > 100 nM
 7  CC[C@H]1CN(c2nc(N)c(C(N)=O)nc2Cl)CCN1C1CCN(Cc2ccc(Cl)cc2C(N)=O)CC1 [compound 8]         < 25 nM
 8  CC[C@H]1CN(c2nc(N)c(C(N)=O)nc2Cl)CCN1C1CCN(Cc2ccc(Cl)cc2CCN)CC1 [compound 6]         < 25 nM
 9  CC[C@H]1CN(c2cnc(C(=O)OC(C)C)c(N)n2)CCN1C1CCN(Cc2ccc(Cl)cc2)CC1 [compound 311]        > 100 nM
10  CC[C@H]1CN(c2nc(N)c(C(=O)NCCO)nc2Cl)CCN1C1CCN(Cc2ccc(Cl)cc2C(C)C(=O)O)CC1 (stereo partly drawn) [compound 202]        > 100 nM
11  CC[C@H]1CN(c2nc(N)c(C(=O)NC)nc2Cl)CCN1C1CCN(C(=O)c2ccc(Cl)cc2C)CC1 [compound 341]    25 to 100 nM
12  CC[C@H]1CN(c2nc(N)c(C(=O)NCCOc3ccccc3)nc2Cl)CCN1C1CCN(Cc2ccc(C#N)cc2)CC1 [compound 99]         < 25 nM
13  CC[C@H]1CN(c2nc(N)c(C(N)=O)nc2Cl)CCN1C1CCN(Cc2ccc(Cl)cc2C2COC(=O)O2)CC1 (stereo partly drawn) [compound 375]    25 to 100 nM
14  CC[C@H]1CN(c2nc(N)c(C(=O)NCCO)nc2Cl)CCN1C1CCN(C(C(=O)OC)c2ccc(Cl)cc2OC)CC1 (stereo partly drawn) [compound 206]        > 100 nM
15  CC[C@H]1CN(c2nc(N)c(C(=O)NCCO)nc2Cl)CCN1C1CCN(Cc2ccc(Cl)cc2-c2cnc(N)nc2)CC1 [compound 171]         < 25 nM
16  CCOC(=O)/N=C(\N)c1cc(Cl)ccc1CN1CCC(N2CCN(c3nc(N)c(C(=O)NCCNS(C)(=O)=O)nc3Cl)C[C@@H]2CC)CC1 [compound 246]         < 25 nM
17  CCOC(=O)C1CCC(Oc2ccc(CN3CCC(N4CCN(c5nc(N)c(C(N)=O)nc5Cl)C[C@@H]4CC)CC3)cc2)CC1 (stereo partly drawn) [compound 53]        > 100 nM
18  CC[C@H]1CN(c2nc(N)c(C(=O)NCCO)nc2Cl)CCN1C1CCN(C(CCO)c2ccc(Cl)cc2)CC1 (stereo partly drawn) [compound 170]         < 25 nM
19  CC[C@H]1CN(c2nc(N)c(C(=O)NCCO)nc2Cl)CCN1C1CCN([C@H](CO)c2ccc(F)c(F)c2)CC1 [compound 182]    25 to 100 nM
20  CC[C@H]1CN(c2nc(N)c(C(=O)NC(=N)NC)nc2Cl)CCN1C1CCN(C(=O)c2ccc(Cl)c(F)c2)CC1 [compound 392]         < 25 nM
21  CC[C@H]1CN(c2nc(N)c(C(=O)NCCO)nc2Cl)CCN1C1CCN(Cc2ccc(F)c(OCCSC)c2)CC1 [compound 413]         < 25 nM
22  CC[C@H]1CN(c2nc(N)c(C(=O)NN)nc2Cl)CCN1C1CCN(C(=O)c2ccc(Cl)cc2)CC1 [compound 358]        > 100 nM
23  CC[C@H]1CN(c2nc(N)c(C(=O)NCCO)nc2Cl)CCN1C1CCN(Cc2ccc(Cl)cc2OCCNS(=O)(=O)N(C)C)CC1 [compound 147]         < 25 nM
24  CC[C@H]1CN(c2ncc(C(N)=O)nc2C)[C@H](C)CN1C1CCN(Cc2ccc(F)cc2)CC1 [compound 432]         < 25 nM
25  CC[C@H]1CN(c2nc(N)c(C(N)=O)nc2Cl)CCN1C1CCN(Cc2ccc(Cl)cc2CCNC(N)=O)CC1 [compound 34]    25 to 100 nM
26  CC[C@H]1CN(c2nc(N)c(C(=O)NCCNS(C)(=O)=O)nc2Cl)CCN1C1CCN(Cc2ccc(F)c(F)c2N2CC[C@@H](O)C2)CC1 [compound 252]    25 to 100 nM
27  CC[C@H]1CN(c2ncc(C(=O)NC3CC3)nc2C)CCN1C1CCN(C(=O)c2ccc(Cl)cc2)CC1 [compound 460]         < 25 nM
